molecular target: recombinant IRAK-4 kinase (Homo sapiens, UniProt Q9NWZ3); construct: purchased Millipore, USA; assay: IRAK-4 Biochemical Assay (TR-FRET, percent inhibition); conditions: read-out: % inhibition of IRAK-4 @0.1 μM, compound at 0.1 μM; TR-FRET, 20 μM ATP, 100 nM Biotin Histone H3
Where a name gives a salt, the structure may show the parent alone.
Classify by measured inhibition at 0.1 µM: true (1) if it is equal to or exceeds 90%, false (0) if it is smaller.

Example cases with answers are listed next.
O=C(Nc1cc2sc(N3CCOCC3)nc2nc1N1CCCCC1)c1cccc(N2CC3CC2CO3)n1 (centres unmarked): true (1)
O=C(Nc1cc2sc(N3CCOCC3)nc2nc1N1CCCCC1)c1cccc(N2CCCC(CO)C2)n1 (centres unmarked): true (1)
Cc1ccc(C(=O)Nc2cc3sc(N4CCOCC4)nc3nc2N2CCCCC2)nc1N1CC[C@H](O)C1: true (1)

Record O=C(Nc1cc2sc(N3CCOCC3)nc2nc1C1CC1)c1cncc(N2CCC(O)C2)n1 (centres unmarked) ; criterion: inhibition at 0.1 µM no lower than 90%. Met?
false (0)

Please do the same for Cc1cc(-c2nc(C(=O)Nc3cc4sc(N5CCNCC5)nc4nc3N3CCCCC3)co2)ccn1 [Example 7, hydrochloride] as well.
true (1)

Please do the same for O=C(Nc1cc2sc(N3CCOCC3)nc2nc1N1CCCCC1)c1cccc(-n2cc(CO)cn2)n1 as well.
true (1)

###

Target: recombinant IRAK-4 kinase (Homo sapiens, UniProt Q9NWZ3)
Construct: purchased Millipore, USA
Sequence (Q9NWZ3 1-460): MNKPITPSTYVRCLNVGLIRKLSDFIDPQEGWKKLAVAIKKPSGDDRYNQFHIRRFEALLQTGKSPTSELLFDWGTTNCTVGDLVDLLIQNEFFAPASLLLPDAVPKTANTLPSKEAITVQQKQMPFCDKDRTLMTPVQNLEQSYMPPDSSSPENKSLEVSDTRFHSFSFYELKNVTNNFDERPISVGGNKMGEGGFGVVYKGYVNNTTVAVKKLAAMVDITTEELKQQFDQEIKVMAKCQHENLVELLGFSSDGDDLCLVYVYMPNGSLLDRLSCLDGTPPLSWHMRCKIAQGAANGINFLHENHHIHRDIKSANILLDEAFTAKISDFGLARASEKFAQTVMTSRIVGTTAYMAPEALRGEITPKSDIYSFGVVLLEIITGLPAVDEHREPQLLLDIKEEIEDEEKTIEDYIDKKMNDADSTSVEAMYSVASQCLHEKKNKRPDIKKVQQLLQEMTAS
Assay: IRAK-4 Biochemical Assay (TR-FRET, percent inhibition)
Conditions: read-out: % inhibition of IRAK-4 @ 1 μM, compound at 1 μM; TR-FRET, 20 μM ATP, 100 nM Biotin Histone H3
Structures can show the parent of a compound that is named as a salt.
Exercise: for every item that follows, state its recorded inhibition at 1 µM.
Numbers only, in %.

Reference set (2 entries):
Cc1nc2nc(N3CCOCC3)sc2cc1NC(=O)c1cccc(N2CCC(O)C2)n1 (stereo not shown): 92
Cc1cc(-c2ccc(C(=O)Nc3cc4sc(N5CCOCC5)nc4nc3N3CCC(O)(CO)CC3)o2)ccn1 [Example 2, hydrochloride]: 99

For each of the compounds below, note its inhibition at 1 µM.
1. Nc1cc(-c2cccc(C(=O)Nc3cc4sc(N5CCOCC5)nc4nc3C3CC3)n2)ccn1
2. Cc1ccc(C(=O)Nc2cc3sc(N4CCOCC4)nc3nc2N2CCCCC2)nc1N1CC[C@H](O)C1

1: 96; 2: 98

For each of the compounds below, note its inhibition at 1 µM.
1. O=C(Nc1cc2sc(N3CCOCC3)nc2nc1N1CCC[C@@H](O)C1)c1cccc(N2CCCCCC2)n1
2. NC1CCCN(c2ccn3ncc(C(=O)Nc4cc5sc(N6CCOCC6)nc5nc4C4CC4)c3n2)C1 (stereo not shown)
3. Nc1cc(-c2nc(C(=O)Nc3cc4sc(N5CCOCC5)nc4nc3N3CCCCC3)co2)c(Cl)cn1
4. Nc1cccc(-c2nc(C(=O)Nc3cc4oc(N5CCOCC5)nc4nc3N3CC[C@@H](O)C3)co2)n1 [Example 87, hydrochloride]

1: 98; 2: 98; 3: 98; 4: 57

For each of the compounds below, note its inhibition at 1 µM.
1. Cc1cc(-c2nc(C(=O)Nc3cc4oc(N5CCOCC5)nc4nc3N3CC[C@@H](OC(=O)CN)C3)co2)ccn1
2. O=C(Nc1cc2sc(N3CCOCC3)nc2nc1N1CCC(O)(CO)CC1)c1cccc(N2CC[C@H](O)C2)n1 [Example 8, hydrochloride]
3. NC(=O)C1CCN(c2cccc(C(=O)Nc3cc4sc(N5CCOCC5)nc4nc3N3CCCCC3)n2)CC1
4. O=C(Nc1cc2sc(N3CCOCC3)nc2nc1N1CCCCC1)c1ccnc(N2CC[C@@H](O)C2)n1

1. 99
2. 98
3. 98
4. 99

Form entry - test system: recombinant IRAK-4 kinase (Homo sapiens, UniProt Q9NWZ3); read-out: inhibition at 1 µM; compound: CC(N)C(=O)O[C@H]1CCN(c2cccc(C(=O)Nc3cc4sc(N5CCOCC5)nc4nc3N3CCCCC3)n2)C1 (stereo partly shown)
98
